System: gene editing with Cas9
protocol text: Screen of 322 new SSAP proteins, gene editing activity with Cas9 (Table 5)
Type: cell-based
condition notes: normalized
Catalogue of Cas9 with SSAP activity (normalized) readings, one per entry.

| molecule | Cas9 with SSAP activity (normalized) |
| --- | --- |
| SSAP_106: SEQ ID NO: 275; Tepidibacillus fermentans (protein, Tepidibacillus fermentans) ATNEKVKTQLANRANGQAPTPTPEQTIAAYMKKMAPRFAEVLPKHMDIDRMTRIALTTIRTNPKLLEASVPSLLGAIMQAAQLGLEPGLVGHCYLVPFKNGKTGQTEVQFIIGYKGMIDLARRSGNIESIYAHAVYENDTFEYEYGLHPKLVHKPAMTDRGEFIGAYAVAHFKDGGYQFEFMPKEEIEKRRNRSKTANGGPWVTDYEEMAKKTVVRHMWKYLPISIEIQQAAAQDEVIRKDVTSEPEFVDDVIDISTEIEEQSVEVEGEEAQ | −1.211 |
| SSAP_125: SEQ ID NO: 294; Lysinibacillus fusiformis (protein, listed as Lysinibacillus fusiformis) ATTNELKAKSQNQVQQNVTPEQSLNTLLKRMGPQIQRALPKHMDADRIARIALTAVRATPKLLECDQMSFVAALMQSAQLGVEPNTGLGQAYLIPYGKQVQFQLGYKGLIDLAVRSGQYKAIYAHEVYKEDEFSFAYGLHKDLVHVPSTNPEGEPIGYYAVYHLKNGGYDFVYWTRERIDKHAHEFSQAVKKGWTSPWKTNYDAMAKKTVLKEVLKYAPKSIELQKVVEADETIKTEVSEDMSDVIDVTDYSVIEDESAQEELIIEQ | −0.329 |
